# Tested on: NCI-H460
# methodDescription: NCI tumour cell line growth inhibition, 48 h
The source made the active and inactive calls. Cut-off read from the data, not from the text of the source: active = GI50 up to about 1.1 µM and inactive = higher. Peptide text beside a SMILES is read from it. * marks the point of attachment. OSu = O=C1CCC(=O)N1O*
Parameter call: string, one of t for active, f for inactive

In: Outcome? N=C(N)NS(=O)(=O)c1ccc(NNc2c3ccccc3nc3c(C(=O)Nc4ccc(S(=O)(=O)Nc5ncccn5)cc4)cccc23)cc1
Out: f

In: Outcome? Nn1c(-c2ccccc2)nc2ccc(Br)cc2c1=O
Out: f

In: Outcome? COCc1c(CO)cnc(C)c1OC1OC(CO)C(O)C(O)C1O (configuration not stated)
Out: f

In: Outcome? C=C(Cl)C(C)(Cl)CCC(Cl)C(C)(C)Cl (configuration not stated)
Out: f

In: Outcome? O=C(/C=C/C=C/c1ccccc1)c1ccccc1
Out: f

In: Outcome? CN1CCC(c2c(O)cc(O)c3c(=O)cc(-c4ccccc4Cl)oc23)C(O)C1 (configuration not stated)
Out: t

In: Outcome? NCCCCC(NC(=O)C(N)Cc1ccc(O)cc1)C(=O)NC(CCCCN)C(=O)NC(CCCCN)C(=O)ON1C(=O)CCC1=O (configuration not stated) (H-YKKK-OSu; configuration not given here)
Out: f

In: Outcome? OC1(c2ccccc2)CC2CCC(C1)N2CCCC(O)(c1ccccc1)c1ccccc1 (configuration not stated)
Out: f

In: Outcome? CC[N+]1(C)CCC(O)(c2ccc(C)cc2)C(C(=O)c2ccc(C)cc2)C1 (configuration not stated)
Out: f

In: Outcome? N#Cc1cc(NC(=O)c2ccccc2)c(=O)n2c1[nH]c1ccccc12
Out: f

In: Outcome? COc1cc(C2c3cc4c(cc3OC(N3CCOCC3)C2C)OCO4)ccc1O (configuration not stated)
Out: f

In: Outcome? CC1CC(=O)c2c(ccc3c2C(=O)c2cccc(O)c2C3=O)C1 (configuration not stated)
Out: f

In: Outcome? CCCN1C(=O)CN(S(=O)(=O)c2ccc(Cl)cc2)C1=O
Out: f

In: Outcome? COc1cccc(C=C2N=C(c3ccccc3)N(n3c(-c4ccccc4)nc4ccccc4c3=O)C2=O)c1
Out: f

In: Outcome? CSc1ncc2c(n1)-c1ccccc1OC2NC1CC1 (configuration not stated)
Out: f

In: Outcome? C[Si](C)(C)/N=C1\N2C(=NC1(C(F)(F)F)C(F)(F)F)Sc1ccccc12
Out: f

In: Outcome? CC(=O)N(CN1C(=O)CCC1C(=O)O)c1ccc(C)cc1 (configuration not stated)
Out: f

In: Outcome? CC(C)(Cl)C(Br)CCC(Br)(CCl)C(Cl)CBr (configuration not stated)
Out: f

In: Outcome? C(=C1/CCCCC([n+]2ccccc2)=N1)/c1ccccc1
Out: f

In: Outcome? COc1c2c3c4c(c(OC)c(=O)c5c(O)cc(OC)c(c6c(OC)cc(O)c(c1=O)c63)c54)C(C(C)O)C2C(C)O (configuration not stated)
Out: t

In: Outcome? CC(C)[C@](O)(C(=O)OCC1=CC[N+]2([O-])CC[C@@H](O)[C@@H]12)[C@H](C)O (some centres not stated) [INDICINE N-OXIDE]
Out: f

In: Outcome? COc1ccccc1N(CN1C(=O)CCC1C(=O)O)C(C)=O (configuration not stated)
Out: f
